Origin of values: patent US12281162

- target.or.test.system: T1, human G-protein-coupled receptor family C group 5 member D (GPRC5D) (human, UniProt Q9NZD1 1-345)
- T1 construct: whole, on cells; also called human GPRC5D protein
- T1 sequence (Q9NZD1 whole entry): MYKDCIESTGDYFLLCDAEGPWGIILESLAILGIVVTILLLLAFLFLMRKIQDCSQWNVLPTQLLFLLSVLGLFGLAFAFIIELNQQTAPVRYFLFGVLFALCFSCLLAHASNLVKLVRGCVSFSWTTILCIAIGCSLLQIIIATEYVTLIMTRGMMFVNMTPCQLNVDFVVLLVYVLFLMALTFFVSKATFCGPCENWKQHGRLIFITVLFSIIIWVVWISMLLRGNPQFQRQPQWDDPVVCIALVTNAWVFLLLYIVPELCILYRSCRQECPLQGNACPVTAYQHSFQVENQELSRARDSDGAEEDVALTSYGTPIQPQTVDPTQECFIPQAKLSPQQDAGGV
- test.protocol: FACS, CHO-K1/GPRC5D
measurement.type: LogEC50
Lab note: write the figure by itself, no unit.

binder: 58F9G10-XI (antibody, V domains shown, also called 58F9G10 (chimeric); 58-XI) VH: EVQLQQSGPELVKTGASVKISCKASGYSFTGYYIHWVKQSHGKSLEWIGYISCYNGATSFNQKFKGKATFTVDTSSSTAYMQFNSLTSEDSAVYYCARTELRGPWFAYWGQGTLVTVSA VL: QTVLTQSPAIMSASPGEKVTMTCSASSSVSYMNWYQQKSGTSPKRWIYDTSKLASGVPARFSGSGSGTSYSLTISSMEAEDAATYYCQQWSNNPLTFGAGTKLELK
LogEC50: 0.292
--
binder: 58-H1L1 (antibody, V domains shown, humanized 58F9G10, VH v1 x VL v1) VH: QVQLVQSGAEVKKPGASVKVSCKASGYSFTGYYIHWVRQAPGQGLEWMGYISSYNAATSFNQKFKGRVTMTRDTSTSTVYMELSSLRSEDTAVYYCARTELRGPWFAYWGQGTLVTVSS VL: DIQMTQSPSSLSASVGDRVTITCSASSSVSYMNWYQQKPGKAPKLLIYDTSKLASGVPSRFSGSGSGTDFTLTISSLQPEDFATYYCQQWSNNPLTFGQGTKLEIK
LogEC50: 0.252
--
binder: 58-H4L1 (antibody, V domains shown, humanized 58F9G10, VH v4 x VL v1) VH: QVQLVQSGAEVKKPGASVKISCKASGYSFTGYYIHWVKQAPGQGLEWIGYISSYNAATSFNQKFKGRATFTVDTSTSTAYMEFSSLRSEDSAVYYCARTELRGPWFAYWGQGTLVTVSS VL: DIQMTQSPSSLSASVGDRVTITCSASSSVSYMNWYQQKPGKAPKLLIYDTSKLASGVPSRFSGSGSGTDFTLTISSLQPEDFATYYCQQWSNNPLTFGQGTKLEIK
LogEC50: 0.365
--
binder: 58-H1L2 (antibody, V domains shown, humanized 58F9G10, VH v1 x VL v2) VH: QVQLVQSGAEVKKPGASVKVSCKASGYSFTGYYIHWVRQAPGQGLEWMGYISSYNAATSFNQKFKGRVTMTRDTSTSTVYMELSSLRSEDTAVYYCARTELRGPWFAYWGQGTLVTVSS VL: DTQMTQSPSSLSASVGDRVTITCSASSSVSYMNWYQQKPGKAPKRLIYDTSKLASGVPSRFSGSGSGTDYTLTISSLQPEDFATYYCQQWSNNPLTFGQGTKLEIK
LogEC50: 0.263

Pending binder:
Bench note: what LogEC50 did 58-H3L1 (antibody, V domains shown, humanized 58F9G10, VH v3 x VL v1) VH: QVQLVQSGAEVKKPGASVKVSCKASGYSFTGYYIHWVKQAPGQGLEWIGYISSYNAATSFNQKFKGRVTFTVDTSTSTVYMEFSSLRSEDTAVYYCARTELRGPWFAYWGQGTLVTVSS VL: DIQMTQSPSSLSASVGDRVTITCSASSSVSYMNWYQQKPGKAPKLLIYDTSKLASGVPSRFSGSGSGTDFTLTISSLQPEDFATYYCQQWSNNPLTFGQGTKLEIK show? -0.192
